target: UniProt:P00533
Sequence (P00533 25-1210): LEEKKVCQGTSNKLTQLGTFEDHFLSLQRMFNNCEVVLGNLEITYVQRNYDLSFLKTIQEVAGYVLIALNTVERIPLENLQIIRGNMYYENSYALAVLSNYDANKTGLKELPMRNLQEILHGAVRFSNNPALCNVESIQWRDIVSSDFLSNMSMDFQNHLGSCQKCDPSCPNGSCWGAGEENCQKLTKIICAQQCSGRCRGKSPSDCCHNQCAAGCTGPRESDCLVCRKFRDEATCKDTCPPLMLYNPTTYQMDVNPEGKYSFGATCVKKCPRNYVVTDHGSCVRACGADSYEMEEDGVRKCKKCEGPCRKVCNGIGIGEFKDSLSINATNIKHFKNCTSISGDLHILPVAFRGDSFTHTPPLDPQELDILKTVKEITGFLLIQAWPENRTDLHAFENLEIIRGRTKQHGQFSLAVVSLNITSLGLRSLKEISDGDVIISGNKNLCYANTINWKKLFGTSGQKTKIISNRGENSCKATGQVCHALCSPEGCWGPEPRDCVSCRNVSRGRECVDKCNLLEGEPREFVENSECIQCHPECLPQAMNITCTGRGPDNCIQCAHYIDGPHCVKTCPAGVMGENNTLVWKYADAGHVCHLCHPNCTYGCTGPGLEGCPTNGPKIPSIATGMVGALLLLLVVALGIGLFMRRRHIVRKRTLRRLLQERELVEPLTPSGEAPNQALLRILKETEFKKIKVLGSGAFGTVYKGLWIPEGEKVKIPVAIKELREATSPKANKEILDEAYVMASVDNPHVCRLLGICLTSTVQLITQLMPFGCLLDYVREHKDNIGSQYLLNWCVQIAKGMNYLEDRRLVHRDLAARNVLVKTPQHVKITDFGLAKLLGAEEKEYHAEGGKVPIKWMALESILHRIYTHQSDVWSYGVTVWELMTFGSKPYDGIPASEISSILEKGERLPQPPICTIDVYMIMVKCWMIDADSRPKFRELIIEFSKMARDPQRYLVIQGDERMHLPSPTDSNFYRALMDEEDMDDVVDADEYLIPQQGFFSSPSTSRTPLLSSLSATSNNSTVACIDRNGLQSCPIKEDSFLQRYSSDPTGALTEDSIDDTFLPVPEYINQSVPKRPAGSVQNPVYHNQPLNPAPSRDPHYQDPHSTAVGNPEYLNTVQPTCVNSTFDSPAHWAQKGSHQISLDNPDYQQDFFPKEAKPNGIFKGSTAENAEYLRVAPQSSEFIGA
Property Label: IC50 (nM)
Report the value in nM with no unit label.

Reported IC50 for C#Cc1cccc(Nc2ncnc3cc(OC)c(O[C@@H]4CCN(C)CC4(F)F)cc23)c1F [WSD-0922] : what is it?
0.056
